pIC50: −log10 of the molar value.
Record: pIC50 reported on UniProt:P23946.
Sequence (P23946 whole entry): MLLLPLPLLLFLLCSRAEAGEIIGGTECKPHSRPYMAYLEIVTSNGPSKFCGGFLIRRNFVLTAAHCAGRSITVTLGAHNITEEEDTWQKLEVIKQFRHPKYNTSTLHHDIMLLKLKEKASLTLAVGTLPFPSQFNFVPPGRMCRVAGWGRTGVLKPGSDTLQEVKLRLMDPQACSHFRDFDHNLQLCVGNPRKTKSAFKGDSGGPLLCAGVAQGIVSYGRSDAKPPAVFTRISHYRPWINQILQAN

MOLECULE: CCCCC(NC(=O)c1ccc(C#N)cc1)C(C)(C)C(=O)N[C@@H](Cc1ccccc1)C(=O)OCC (some centres not stated)
pIC50: 3.29
--
MOLECULE: CCCCCCC(NC(=O)c1ccc(C#N)cc1)C(C)(C)C(=O)N[C@@H](Cc1ccccc1)C(=O)OC(C)C (some centres not stated)
pIC50: 6.82

* * *

Record: pIC50 reported on Serine protease 1 (Bos taurus, UniProt P00760).
Sequence (P00760 whole entry): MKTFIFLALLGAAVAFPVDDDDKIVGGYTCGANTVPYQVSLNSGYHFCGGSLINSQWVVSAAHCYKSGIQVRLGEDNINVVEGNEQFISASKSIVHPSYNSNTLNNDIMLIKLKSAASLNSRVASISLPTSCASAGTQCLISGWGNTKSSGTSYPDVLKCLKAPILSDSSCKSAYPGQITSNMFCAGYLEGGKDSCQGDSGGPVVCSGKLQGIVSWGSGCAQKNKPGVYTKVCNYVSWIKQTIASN
pIC50: −log10 of the molar value.
MEASUREMENT_LABEL: pIC50

COMPOUND: CCOC(=O)[C@H](Cc1ccccc1)NC(=O)C(C)(C)C(NC(=O)c1ccc(C#N)cc1)C(C)C (stereo partly specified)
NUMERIC_RESULT: 4.22
//
COMPOUND: CCCCCCCCCCCCC(NC(=O)c1ccc(C#N)cc1)C(C)(C)C(=O)N[C@@H](Cc1ccccc1)C(=O)OCC (stereo partly specified)
NUMERIC_RESULT: 3.66
//
COMPOUND: CCCCCCC(NC(=O)c1ccc(C#N)cc1)C(C)(C)C(=O)N[C@@H](Cc1ccccc1)C(=O)OC(C)C (stereo partly specified)
NUMERIC_RESULT: 5.17
//
COMPOUND: CCCCCCC(NC(=O)c1ccc(C#N)cc1)C(C)(C)C(=O)N[C@@H](Cc1ccccc1)C(=O)OCC (stereo in doubt; 3)
NUMERIC_RESULT: 6.27
//
COMPOUND: CCCCCCC(NC(=O)OC(C)(C)C)C(C)(C)C(=O)N[C@@H](Cc1ccccc1)C(=O)OCC (stereo partly specified)
NUMERIC_RESULT: 5.20
//
COMPOUND: CCCCCCC(NC(=O)c1ccc(C#N)cc1)C(C)(C)C(=O)N[C@@H](Cc1ccccc1)C(=O)OCCC (stereo partly specified)
NUMERIC_RESULT: 4.77
